Values were extracted from the supplement of paper PMC11061612.

- Tested on: CGTH-W-1 (Thyroid Gland Carcinoma)
- Assay Overview: Bliss excess, mean over the matrix (fraction); higher = more synergy
Listing of recorded Bliss excess by entry.
Please respond with just the number, no unit label.

[
  {
    "Molecule": "N#Cc1cnc(Nc2cc(NC[C@H]3CNCCO3)c(C(F)(F)F)cn2)cn1 [SRA737] + CCc1c2c(nc3ccc(O)cc13)-c1cc3c(c(=O)n1C2)COC(=O)[C@]3(O)CC [SN-38] (first compound max 10 µM, 7x7, partner max 0.3 µM)",
    "Bliss excess": -0.0377
  },
  {
    "Molecule": "COc1nnc2ccc(N3CCC(c4ccc(OCCN5CCN(C)C(=O)[C@H]5C)cc4)CC3)nn12 [AZD5153] + CC1(C)CCC(CN2CCN(c3ccc(C(=O)NS(=O)(=O)c4ccc(NCC5CCOCC5)c([N+](=O)[O-])c4)c(Oc4cnc5[nH]ccc5c4)c3)CC2)=C(c2ccc(Cl)cc2)C1 [Venetoclax] (first compound max 1 µM, 7x7, partner max 1 µM)",
    "Bliss excess": -0.0407
  }
]

Now look at this entry.
Prompt line: Fill in: Bliss excess of COc1cc2c(cc1OCCCCCOc1cc3c(cc1OC)C(=O)N1C=C(C)C[C@H]1C=N3)N=C[C@@H]1CC(C)=CN1C2=O [SG3199] + O=C(c1cc(Cc2n[nH]c(=O)c3ccccc23)ccc1F)N1CCN(C(=O)C2CC2)CC1 [Olaparib] (first compound max 0.001 µM, 7x7, partner max 10 µM) is ___
Response line: -0.0332

###

- Test system: HCC1395 (Breast Carcinoma)
- Assay Overview: Bliss excess, mean over the matrix (fraction); higher = more synergy
The label depends only on Bliss excess: true (1) if it is at least -0.03, false (0) if it is smaller.

Some solved entries appear below for comparison.
[
  {
    "Molecule": "C[C@@H](c1ccc2nccn2c1)n1nnc2ncc(-c3cnn(C)c3)nc21 [Savolitinib] + Cc1c2c(nn1C)CSCc1cc(n(C)n1)CSc1cc(c3ccccc3c1)OCCCc1c(C(=O)O)n(C)c3c-2c(Cl)ccc13 [AZD5991] (first compound max 1 µM, 7x7, partner max 1 µM)",
    "Qualitative Label": "false (0)"
  },
  {
    "Molecule": "CCN(CCO)CCCOc1ccc2c(Nc3cc(CC(=O)Nc4cccc(F)c4)[nH]n3)ncnc2c1 [AZD2811] + C=CCn1c(=O)c2cnc(Nc3ccc(N4CCN(C)CC4)cc3)nc2n1-c1cccc(C(C)(C)O)n1 [AZD1775] (first compound max 1 µM, partner max 1 µM)",
    "Qualitative Label": "false (0)"
  },
  {
    "Molecule": "Cc1c2c(nn1C)CSCc1cc(n(C)n1)CSc1cc(c3ccccc3c1)OCCCc1c(C(=O)O)n(C)c3c-2c(Cl)ccc13 [AZD5991] + Cn1cnc2c(F)c(Nc3ccc(Br)cc3Cl)c(C(=O)NOCCO)cc21 [Selumetinib] (first compound max 1 µM, 7x7, partner max 3 µM)",
    "Qualitative Label": "true (1)"
  },
  {
    "Molecule": "CN(CCO)CC[C@H](CSc1ccccc1)Nc1ccc(S(=O)(=O)NC(=O)c2ccc(N3CCC([C@@H](O)c4ccccc4-c4ccc(Cl)cc4)CC3)cc2)cc1S(=O)(=O)C(F)(F)F [AZD4320] + C=CCn1c(=O)c2cnc(Nc3ccc(N4CCN(C)CC4)cc3)nc2n1-c1cccc(C(C)(C)O)n1 [AZD1775] (first compound max 1 µM, partner max 1 µM)",
    "Qualitative Label": "false (0)"
  }
]

Prompt line: Decide: is the reported value of Bliss excess for O=C(c1cc(Cc2n[nH]c(=O)c3ccccc23)ccc1F)N1CCN(C(=O)C2CC2)CC1 [Olaparib] + CN(CC[C@H](CSC1=CC=CC=C1)NC2=C(C=C(C=C2)S(=O)(=O)NC(=O)C3=CC=C(C=C3)N4CCC(CC4)[C@H](C5=CC=CC=C5C6=CC=C(C=C6)Cl)O)S(=O)(=O)C(F)(F)F)CCO [AZD4320] (first compound max 10 µM, 7x7, partner max 1 µM) equal to or greater than -0.03?
Response line: false (0)

Prompt line: And what about the molecule COc1cc2c(cc1OCCCCCOc1cc3c(cc1OC)C(=O)N1C=C(C)C[C@H]1C=N3)N=C[C@@H]1CC(C)=CN1C2=O [SG3199] + O=C(c1cc(Cc2n[nH]c(=O)c3ccccc23)ccc1F)N1CCN(C(=O)C2CC2)CC1 [Olaparib] (first compound max 0.001 µM, 7x7, partner max 10 µM) ?
Response line: false (0)

Prompt line: Lookup Cc1c2c(nn1C)CSCc1cc(n(C)n1)CSc1cc(c3ccccc3c1)OCCCc1c(C(=O)O)n(C)c3c-2c(Cl)ccc13 [AZD5991] + Nc1ccn([C@@H]2O[C@H](CO)[C@@H](O)C2(F)F)c(=O)n1 [Gemcitabine] (first compound max 1 µM, 7x7, partner max 0.3 µM)
Response line: true (1)

###

- Test system: A253 (Head and Neck Carcinoma)
- Assay Overview: combination Emax (second highest fraction inhibited in the dose matrix, 72 h); higher = more inhibition; extreme values may be limits of the assay
Below, each entry is listed with its recorded combination Emax.
# answer = number (no unit)

[
  {
    "Molecule": "C[C@@H](c1ccc2nccn2c1)n1nnc2ncc(-c3cnn(C)c3)nc21 [Savolitinib] + CC1(C)CCC(CN2CCN(c3ccc(C(=O)NS(=O)(=O)c4ccc(NCC5CCOCC5)c([N+](=O)[O-])c4)c(Oc4cnc5[nH]ccc5c4)c3)CC2)=C(c2ccc(Cl)cc2)C1 [Venetoclax] (first compound max 1 µM, 7x7, partner max 1 µM)",
    "Value Measured": 0.092
  }
]

Field: next molecule
Prompt line: I would be grateful if you could share the reported combination Emax for COc1nnc2ccc(N3CCC(c4ccc(OCCN5CCN(C)C(=O)[C@H]5C)cc4)CC3)nn12 [AZD5153] + Cn1cnc2c(F)c(Nc3ccc(Br)cc3Cl)c(C(=O)NOCCO)cc21 [Selumetinib] (first compound max 1 µM, 7x7, partner max 10 µM) .
Response line: 0.456

###

- Test system: CGTH-W-1 (Thyroid Gland Carcinoma)
- Assay Overview: Bliss excess, mean over the matrix (fraction); higher = more synergy
Known Bliss excess of a selection of molecules
Form rule: numeric answer, no unit written next to it.

Reference set, count: 5
[
  {
    "Molecule": "Cn1cnc2c(F)c(Nc3ccc(Br)cc3Cl)c(C(=O)NOCCO)cc21 [Selumetinib] + C[C@@H]1COCCN1C2=NC(=NC(=C2)C3(CC3)[S@](=N)(=O)C)C4=C5C=CNC5=NC=C4 [AZD6738] (first compound max 10 µM, 7x7, partner max 10 µM)",
    "Bliss excess": -0.0232
  },
  {
    "Molecule": "Cc1c2c(nn1C)CSCc1cc(n(C)n1)CSc1cc(c3ccccc3c1)OCCCc1c(C(=O)O)n(C)c3c-2c(Cl)ccc13 [AZD5991] + CCN(CCO)CCCOc1ccc2c(Nc3cc(CC(=O)Nc4cccc(F)c4)[nH]n3)ncnc2c1 [AZD2811] (first compound max 1 µM, 7x7, partner max 1 µM)",
    "Bliss excess": 0.0439
  },
  {
    "Molecule": "CN(CCO)CC[C@H](CSc1ccccc1)Nc1ccc(S(=O)(=O)NC(=O)c2ccc(N3CCC([C@@H](O)c4ccccc4-c4ccc(Cl)cc4)CC3)cc2)cc1S(=O)(=O)C(F)(F)F [AZD4320] + C[C@@H]1COCCN1C2=NC(=NC(=C2)C3(CC3)[S@](=N)(=O)C)C4=C5C=CNC5=NC=C4 [AZD6738] (first compound max 1 µM, 7x7, partner max 10 µM)",
    "Bliss excess": -0.0342
  },
  {
    "Molecule": "Cc1cc2ncnn2cc1Nc1ncc2c(n1)n(C1CCOCC1)c(=O)n2C [AZD7648] + CN(C)CCCOc1ccc(-c2ccc3ncc4c(c3c2)n(C2CCOCC2)c(=O)n4C)cn1 [AZD0156] (first compound max 10 µM, 7x7, partner max 1 µM)",
    "Bliss excess": 0.0015
  },
  {
    "Molecule": "O=C(c1cc(Cc2n[nH]c(=O)c3ccccc23)ccc1F)N1CCN(C(=O)C2CC2)CC1 [Olaparib] + CN(CC[C@H](CSC1=CC=CC=C1)NC2=C(C=C(C=C2)S(=O)(=O)NC(=O)C3=CC=C(C=C3)N4CCC(CC4)[C@H](C5=CC=CC=C5C6=CC=C(C=C6)Cl)O)S(=O)(=O)C(F)(F)F)CCO [AZD4320] (first compound max 10 µM, 7x7, partner max 1 µM)",
    "Bliss excess": -0.0482
  }
]

Prompt line: Tell me the measured Bliss excess of C[C@@H](c1ccc2nccn2c1)n1nnc2ncc(-c3cnn(C)c3)nc21 [Savolitinib] + CC1(C)CCC(CN2CCN(c3ccc(C(=O)NS(=O)(=O)c4ccc(NCC5CCOCC5)c([N+](=O)[O-])c4)c(Oc4cnc5[nH]ccc5c4)c3)CC2)=C(c2ccc(Cl)cc2)C1 [Venetoclax] (first compound max 1 µM, 7x7, partner max 1 µM) , please.
Response line: -0.0378

Prompt line: Next: COc1cccc(OCCCN)c1-c1cc(Nc2cnc(C#N)cn2)n[nH]1 [Prexasertib] + CCc1c2c(nc3ccc(O)cc13)-c1cc3c(c(=O)n1C2)COC(=O)[C@]3(O)CC [SN-38] (first compound max 1 µM, 7x7, partner max 0.3 µM)
Response line: -0.0566
